A compilation of Ki values for UniProtKB P23975 from the published literature.

For each of the compounds below, note its Ki.
1. CC[C@H](Oc1c(F)cccc1Cl)[C@H]1CCNC1
2. CNCCC(Oc1cccc(-n2nc3c(NC)nnc(C)c3c2C)c1)c1ccccc1F (centres unmarked)
3. CCOc1ccc(-n2nc3c(N(C)Cc4cccc(C)n4)nnc(C)c3c2C)c(F)c1
4. CC(C)[C@H](Oc1ccc(Cl)c(F)c1F)[C@H]1CCNC1
5. Cc1cc(O[C@H](C2CC2)[C@H]2CCNC2)c(Cl)cc1Cl
6. CCC[C@@H](Oc1ccc(Cl)cc1C)[C@H]1CCNC1
7. COc1cc(Cl)ccc1O[C@H](C1CC1)[C@H]1CCNC1
8. Fc1ccc(-c2cccc(-n3cccn3)c2)c(CO[C@H]2CCNC2)c1

// result
1. ≤ 10 nM
2. < 100 nM
3. 500 to 1000 nM
4. ≤ 10 nM
5. ≤ 3160 nM
6. ≤ 100 nM
7. ≤ 10 nM
8. 688 nM

---

pKi: −log10 of the molar value.
A compilation of pKi values for Sodium-dependent noradrenaline transporter (Homo sapiens) from the published literature.

>>> df
                           smiles_structure                       experimental_target  measured
0  CNC[C@@H](Oc1cccc(-n2nc3c(N(C)C)nnc(C)c3c2C)c1)c1ccccc1  Sodium-dependent noradrenaline transporter (Homo sapiens)    > 7.00
1    CC[C@@H](Oc1c(F)ccc(F)c1Cl)[C@H]1CCNC1  Sodium-dependent noradrenaline transporter (Homo sapiens)    ≥ 8.00
2  CCOc1ccc(-n2nc3c(N(C)CCn4cnc5ccccc54)nnc(C)c3c2C)c(F)c1  Sodium-dependent noradrenaline transporter (Homo sapiens)    < 6.00

For each of the compounds below, note its pKi.
1. Fc1cc(O[C@H](C2CC2)[C@@H]2CCNC2)ccc1Cl
2. CCS(=O)(=O)c1ccc(-c2ccc(F)cc2CO[C@H]2CCNC2)cc1

// result
1: ≥ 7.00; 2: ≤ 5.00

---

A compilation of pKi values for Sodium-dependent noradrenaline transporter (Homo sapiens, UniProt P23975) from the published literature.
pKi: −log10 of the molar value.

Some compounds with known pKi results, for comparison:
In [3]: df
Out[3]:
                                   compound                       experimental_target  measured
0  CC(C)CC(Oc1ccccc1F)C1CCNC1 (centres unmarked)  Sodium-dependent noradrenaline transporter (Homo sapiens, UniProt P23975)    ≥ 8.00
1  Cc1nnc(N(C)Cc2ccccn2)c2nn(-c3ccc(O)cc3)c(C)c12  Sodium-dependent noradrenaline transporter (Homo sapiens, UniProt P23975)    < 6.00
2  Cc1ccc(F)c(O[C@@H](C2CC2)[C@H]2CCNC2)c1Cl  Sodium-dependent noradrenaline transporter (Homo sapiens, UniProt P23975)    ≥ 8.00
3  CCOc1ccc(-n2nc3c(N(C)Cc4ncc[nH]4)nnc(C)c3c2C)c(F)c1  Sodium-dependent noradrenaline transporter (Homo sapiens, UniProt P23975)    < 6.00
4    Cc1cc(Cl)ccc1O[C@@H](C1CC1)[C@H]1CCNC1  Sodium-dependent noradrenaline transporter (Homo sapiens, UniProt P23975)    ≥ 8.00
5     OCc1cccc(-c2ccc(F)cc2CO[C@H]2CCNC2)c1  Sodium-dependent noradrenaline transporter (Homo sapiens, UniProt P23975)      5.51

For each of the compounds below, note its pKi.
1. COc1c(C)cc(-c2ccccc2CO[C@H]2CCNC2)cc1C
2. CC[C@H](Oc1ccc(C(F)(F)F)cc1)[C@H]1CCNC1
3. Fc1ccc(O[C@H](C2CC2)[C@@H]2CCNC2)cc1Cl

// result
1: 6.57; 2: ≥ 7.00; 3: ≥ 7.00

For each of the compounds below, note its pKi.
1. O=C(O)/C=C/C(=O)O.c1ccc(Oc2ncccc2OC[C@@H]2CCCNC2)cc1
2. O=C(O)/C=C/C(=O)O.c1ccc(COc2ncccc2OC[C@H]2CCCNC2)cc1
3. CCOc1ccc(-n2nc3c(N4CC[C@H](NCc5ncccc5F)C4)nnc(C)c3c2C)c(F)c1
4. CNCCC(Oc1cccc(-n2nc3c(N(C)C)nnc(C)c3c2C)c1)c1cc(F)cc(F)c1 (centres unmarked)
5. COc1ccc(Cl)cc1-c1ccccc1CO[C@H]1CCNC1
6. CC(C)[C@@H](Oc1cc(Cl)cc(Cl)c1)[C@H]1CCNC1
7. CC(C)[C@H](Oc1cccc(Cl)c1Cl)[C@H]1CCNC1

// result
[6.39, 5.21, "6.00 to 6.30", "6.30 to 7.00", 5.48, "≥ 8.00", "≥ 8.00"]

For each of the compounds below, note its pKi.
1. Clc1cccc(Cl)c1O[C@@H](C1CCCCC1)[C@H]1CCNC1
2. Oc1ccc(-c2ccc(F)cc2CO[C@H]2CCNC2)cc1

// result
1. ≥ 8.00
2. 7.37

For each of the compounds below, note its pKi.
1. Nc1ncccc1-c1ccccc1CO[C@H]1CCNC1
2. Fc1ccc(Cl)c(F)c1O[C@H](C1CC1)[C@H]1CCNC1
3. CCOc1ccccc1OC(c1ccccc1)[C@H]1CCCNC1 (mixture of isomers)
4. Fc1ccc2c(-c3ccccc3)nc(N3CCNCC3)nc2c1F
5. Fc1cccc(-c2nc(C3CCNCC3)nc3ccccc23)c1

// result
1: ≤ 5.00; 2: ≥ 8.00; 3: 8.15; 4: 7.90; 5: 8.26

For each of the compounds below, note its pKi.
1. c1ccc(COc2ccccc2-c2ccccc2CO[C@H]2CCNC2)cc1
2. CNCCC(Oc1cccc(-n2nc3c(N(C)C)nnc(C)c3c2C)c1)c1nccs1 (centres unmarked)
3. CNCCC(Oc1cccc(-n2nc3c(N(C)C)nnc(C)c3c2C)c1)c1cccc(F)c1 (centres unmarked)

// result
[5.38, "≤ 6.00", "> 7.00"]

---

pKi: −log10 of the molar value.
A compilation of pKi values for Sodium-dependent noradrenaline transporter (Homo sapiens, UniProt P23975) from the published literature.

Some compounds with known pKi results, for comparison:
>>> print(df.to_string())
                                   compound                       experimental_target  measured
0  CCCC[C@@H](Oc1ccc(C(F)(F)F)cc1)[C@H]1CCNC1  Sodium-dependent noradrenaline transporter (Homo sapiens, UniProt P23975)    ≥ 7.00
1  COc1ccccc1OC(C1CCCCC1)C1CCNC1 (centres unmarked)  Sodium-dependent noradrenaline transporter (Homo sapiens, UniProt P23975)    ≥ 7.00
2  CCOc1ncccc1OC(c1ccccc1)C1CCCNC1 (single isomer, unassigned; stereoisomer a)  Sodium-dependent noradrenaline transporter (Homo sapiens, UniProt P23975)      8.70
3      CC(C)C[C@H](Oc1ccc(F)cc1)[C@H]1CCNC1  Sodium-dependent noradrenaline transporter (Homo sapiens, UniProt P23975)    ≥ 8.00
4  CC(C)C(Oc1ccccc1Cl)C1CCNC1 (centres unmarked)  Sodium-dependent noradrenaline transporter (Homo sapiens, UniProt P23975)    ≥ 8.00

For each of the compounds below, note its pKi.
1. Cc1ccc(O[C@H](C2CC2)[C@@H]2CCNC2)c(Br)c1
2. CC(C)C[C@@H](Oc1ccc(Cl)cc1)[C@H]1CCNC1
3. Cc1cc(Cl)ccc1O[C@@H](C(C)C)[C@H]1CCNC1

// result
≥ 7.00
≥ 8.00
≥ 8.00

For each of the compounds below, note its pKi.
1. Fc1ccc2c(-c3cccc(F)c3F)nc(N3CCNCC3)nc2c1
2. CC(C)C(Oc1cccc(F)c1)C1CCNC1 (centres unmarked)
3. Fc1ccc(O[C@@H](C2CC2)[C@H]2CCNC2)c(F)c1Cl
4. Fc1ccc(-c2nc(N3CCNCC3)nc3ccccc23)cc1F

// result
1. 7.73
2. ≥ 7.00
3. ≥ 8.00
4. 8.11

For each of the compounds below, note its pKi.
1. CC[C@@H](Oc1ccc(Cl)cc1C)[C@@H]1CCNC1
2. CCC[C@H](Oc1ccc(Cl)cc1C)[C@H]1CCNC1
3. CCOc1ccc(-n2nc3c(NCC[C@@H](O)c4ccccc4)nnc(C)c3c2C)c(F)c1
4. Fc1ccc(-c2nc(N3CCNCC3)c3ccccc3n2)c(F)c1
5. Fc1ccc(-c2nc(C3CCNCC3)nc3ccccc23)c(F)c1
6. COc1ccccc1O[C@@H](CC(C)C)[C@H]1CCNC1
7. CCC[C@@H](Oc1ccccc1Cl)[C@@H]1CCNC1

// result
1. ≥ 7.00
2. ≥ 8.00
3. < 6.00
4. 5.46
5. 7.75
6. ≥ 8.00
7. ≥ 8.00

For each of the compounds below, note its pKi.
1. COc1cc(C)ccc1Oc1nc(C)ccc1OC[C@H]1CCCNC1
2. Cc1ccc(-c2ccccc2CO[C@H]2CCNC2)cc1C
3. CNCCC(Oc1cccc(-n2nc3c(N)nnc(C)c3c2C)c1)c1ccccc1 (centres unmarked)

// result
1: 8.13; 2: 7.67; 3: > 7.00

// query Query the reported pKi for Sodium-dependent noradrenaline transporter (Homo sapiens, UniProt P23975); item: `COc1ccc(-n2nc3c(N(C)Cc4ccccn4)nnc(C)c3c2C)c(F)c1`
// result < 6.00
